Reported pIC50 values, 5-HT1A serotonin receptor (Rattus norvegicus, UniProt P19327).
When answering, recall that pIC50 equals minus log10 of the concentration in mol/L, and write that number alone.

So what's the measured pIC50 for this one? Cn1c2c(c3ccccc31)CCN(CCC(C(=O)N1CCCCCC1)c1ccccc1)C2 (centres unmarked)
7.48

O=C(C(CCN1CCc2c([nH]c3ccccc23)C1)c1ccccc1)N1CCCCCC1 (centres unmarked) , same question.
7.51
